Measured Target: MAP kinase-activated protein kinase 3 (Homo sapiens) (UniProt Q16644)
Sequence (Q16644 whole entry, looked up): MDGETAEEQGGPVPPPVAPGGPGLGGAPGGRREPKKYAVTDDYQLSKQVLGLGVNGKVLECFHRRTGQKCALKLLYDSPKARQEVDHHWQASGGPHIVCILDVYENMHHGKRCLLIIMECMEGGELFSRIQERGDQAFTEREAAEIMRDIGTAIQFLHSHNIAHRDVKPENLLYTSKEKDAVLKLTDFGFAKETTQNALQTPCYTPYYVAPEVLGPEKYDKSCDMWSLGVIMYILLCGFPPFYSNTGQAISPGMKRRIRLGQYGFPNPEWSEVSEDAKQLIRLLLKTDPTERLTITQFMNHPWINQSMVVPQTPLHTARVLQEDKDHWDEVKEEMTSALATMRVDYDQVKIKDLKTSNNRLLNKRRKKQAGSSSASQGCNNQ
Test Settings: at 1 µM
Result Type: residual activity (%)
Answers are plain numbers, in %.

CC#CC(=O)Nc1cc2c(Nc3ccc(F)c(Cl)c3)ncnc2cn1
104
COc1ccc2c(c[n+](C)c3c4cc5c(cc4ccc23)OCO5)c1OC
99
O=C1Nc2ccc3ncsc3c2/C1=C/c1c[nH]cn1
103
CCC(=O)Nc1ccc2ncnc(Nc3cccc(Br)c3)c2c1
89
CO[C@H]1C[C@@H]2CC[C@@H](C)[C@@](O)(O2)C(=O)C(=O)N2CCCC[C@H]2C(=O)O[C@H]([C@H](C)C[C@@H]2CC[C@@H](O)[C@H](OC)C2)CC(=O)[C@H](C)/C=C(\C)[C@@H](O)[C@@H](OC)C(=O)[C@H](C)C[C@H](C)/C=C/C=C/C=C/1C
103

# per-item lookup of residual activity; items listed below
1. Oc1c2ccccc2c2c3c(cccc13)N=N2
2. CCOC(=O)c1c(C)[nH]c(/C=C2\C(=O)Nc3ccccc32)c1C
3. O=C1NC(=O)/C(=C/c2ccc3c(c2)OC(F)(F)O3)S1
4. CC(=O)c1ccc(N2CCOCC2)cc1O
5. COC(=O)[C@@]1(O)C[C@H]2O[C@]1(C)n1c3ccccc3c3c4c(c5c6ccccc6n2c5c31)C(=O)NC4

stdout:
1: 100; 2: 98; 3: 95; 4: 131; 5: 47

* * *

For each entry below, report its residual activity value.
Measured Target: Serine/threonine-protein kinase 4 (Homo sapiens) (UniProt Q13043)
Sequence (whole entry): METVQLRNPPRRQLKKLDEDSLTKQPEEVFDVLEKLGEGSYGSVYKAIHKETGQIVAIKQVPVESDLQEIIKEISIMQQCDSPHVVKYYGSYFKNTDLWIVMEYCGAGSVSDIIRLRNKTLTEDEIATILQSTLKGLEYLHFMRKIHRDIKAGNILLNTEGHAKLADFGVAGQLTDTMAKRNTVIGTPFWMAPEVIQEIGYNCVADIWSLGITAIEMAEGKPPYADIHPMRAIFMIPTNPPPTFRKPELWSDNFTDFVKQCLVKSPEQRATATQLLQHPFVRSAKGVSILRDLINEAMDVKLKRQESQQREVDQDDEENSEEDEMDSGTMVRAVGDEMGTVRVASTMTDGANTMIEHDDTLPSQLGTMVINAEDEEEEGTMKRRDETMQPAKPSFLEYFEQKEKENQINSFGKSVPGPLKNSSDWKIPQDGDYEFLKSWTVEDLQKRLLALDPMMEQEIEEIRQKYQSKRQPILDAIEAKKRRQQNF
Test Settings: at 10 µM
Give bare numbers, in %.

Respectfully, I request residual activity for each entry included below.
1. COc1ccc2c(c[n+](C)c3c4cc5c(cc4ccc23)OCO5)c1OC
2. COc1cc2ncnc(Nc3ccc(OCc4ccccc4)cc3)c2cc1OC
3. O=C1NC(=O)c2c1c1c3ccccc3n3c1c1c2c2ccccc2n1C1CCC3O1
4. CCc1nc(-c2ccc(OC)cc2)[nH]c1-c1ccncc1
5. COC(=O)[C@@]1(O)C[C@H]2O[C@]1(C)n1c3ccccc3c3c4c(c5c6ccccc6n2c5c31)C(=O)NC4
6. O=C1c2ccccc2-c2nc3nnnn3nc21

stdout:
1. 98
2. 104
3. -1
4. 111
5. 1
6. 110

* * *

Measured Target: Serine/threonine-protein kinase WNK2 (Homo sapiens);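 note: residual WNK2 kinase activity expressed as percent of uninhibited control, assayed in MOPS buffer at pH 7.0 containing EDTA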
Test Settings: at 1 µM
Description: Millipore: Percentage of residual kinase activity of WNK2 at 1uM relative to control. Control inhibitor: Phosphoric acid* at 0.3uM. Buffer: 8 mM MOPS pH 7.0, 0.2 mM EDTA
Result Type: residual activity (%)
Give bare numbers, in %.

Use the examples below as a reference point.
COc1cc2ncnc(Nc3ccc(OCc4ccccc4)cc3)c2cc1OC
93
O=C1Nc2ccc3ncsc3c2/C1=C/c1c[nH]cn1
89
CCn1cnc2c(Nc3cccc(Cl)c3)nc(N[C@@H]3CCCC[C@@H]3N)nc21
88
CC(C)[C@H](CO)Nc1nc(Nc2cccc(Cl)c2)c2ncn(C(C)C)c2n1
91

Lab book: residual activity of "CCc1nc(-c2ccc(OC)cc2)[nH]c1-c1ccncc1" noted as 112
